Data origin, for the record: paper PMC9911399

For each of the binders below, state its binding signal.
# Measured on: T1, RBFOX1 RRM RbFoxmut (Fox-RRM*) (Homo sapiens, UniProt Q9NWB1 109-208, R118D;E147R;N151S;E152T)
# T1 sequence: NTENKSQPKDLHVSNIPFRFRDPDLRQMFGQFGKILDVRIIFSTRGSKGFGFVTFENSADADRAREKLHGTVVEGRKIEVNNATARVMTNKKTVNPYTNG
# Method notes: EMSA; HiTS-Eq, 1 nM pool, 10 min; buffer printed only for the single-RNA assays: 10 mM Tris pH 7.5, 150 mM NaCl, 3.4 mM EDTA, 0.001% NP-40, 30 C
# Stated conditions: tags: His6 N-terminal (pET28a); label: 5' 32P
The full ranking holds about 16,000 sequences; the median of “ka relative to ugcaugu” is about 0.096, and the highest 2% start at about 0.35. The sample as a whole holds a higher share of the highest values than the screen did.

Return reported binding signal; argument: GACUAAG (DNA:RNA) RNA: GGGAGACCGGAAUUCAGAUUGUCCGACUAAGUUAAAUCCCGUCGUAGCCACCA DNA 1: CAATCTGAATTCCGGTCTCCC DNA 2: TGGTGGCTACGACGGGATT 0.101 KA relative to UGCAUGU

Param item: AGGUAUC (DNA:RNA) RNA: GGGAGACCGGAAUUCAGAUUGUCCAGGUAUCUUAAAUCCCGUCGUAGCCACCA DNA 1: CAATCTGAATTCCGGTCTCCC DNA 2: TGGTGGCTACGACGGGATT 0.191 KA relative to UGCAUGU

And the next one, GGCUGGA (DNA:RNA) RNA: GGGAGACCGGAAUUCAGAUUGUCCGGCUGGAUUAAAUCCCGUCGUAGCCACCA DNA 1: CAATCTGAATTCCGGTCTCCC DNA 2: TGGTGGCTACGACGGGATT ? 0.0732 KA relative to UGCAUGU

Let us now turn to GAUUGGC (DNA:RNA) RNA: GGGAGACCGGAAUUCAGAUUGUCCGAUUGGCUUAAAUCCCGUCGUAGCCACCA DNA 1: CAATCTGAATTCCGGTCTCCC DNA 2: TGGTGGCTACGACGGGATT 0.145 KA relative to UGCAUGU

Another binder: CAUAUGU (DNA:RNA) RNA: GGGAGACCGGAAUUCAGAUUGUCCCAUAUGUUUAAAUCCCGUCGUAGCCACCA DNA 1: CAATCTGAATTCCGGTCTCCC DNA 2: TGGTGGCTACGACGGGATT 0.149 KA relative to UGCAUGU

Now consider GAUGGUU (DNA:RNA) RNA: GGGAGACCGGAAUUCAGAUUGUCCGAUGGUUUUAAAUCCCGUCGUAGCCACCA DNA 1: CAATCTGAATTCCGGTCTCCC DNA 2: TGGTGGCTACGACGGGATT . 0.0937 KA relative to UGCAUGU

Can you check GGAUGGU (DNA:RNA) RNA: GGGAGACCGGAAUUCAGAUUGUCCGGAUGGUUUAAAUCCCGUCGUAGCCACCA DNA 1: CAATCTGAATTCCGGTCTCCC DNA 2: TGGTGGCTACGACGGGATT next? 0.201 KA relative to UGCAUGU

Same again, this time with AAGUAAA (DNA:RNA) RNA: GGGAGACCGGAAUUCAGAUUGUCCAAGUAAAUUAAAUCCCGUCGUAGCCACCA DNA 1: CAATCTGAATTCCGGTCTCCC DNA 2: TGGTGGCTACGACGGGATT 0.124 KA relative to UGCAUGU

What about this binder? UCCCCAC (DNA:RNA) RNA: GGGAGACCGGAAUUCAGAUUGUCCUCCCCACUUAAAUCCCGUCGUAGCCACCA DNA 1: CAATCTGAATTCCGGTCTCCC DNA 2: TGGTGGCTACGACGGGATT 0.118 KA relative to UGCAUGU
